Data provenance is paper PMC11966256.

- system tested: Cy5-HsLARP6(73-183)G74C La domain (Homo sapiens, UniProt Q9BRS8, G74C)
- protocol details: MST

[
  {
    "binder": "GGCACAAGGAGUCUGCAUGUCUAAGUGCUAGACAUGCUCAGCUUUGUG (structured_RNA) [5'SL RNA (a2(I)), 48 nt]",
    "Kd": "4.87 nM"
  }
]
